- ASSAYED_TARGET: CCK-2R (Rattus norvegicus, UniProt P30553)
- Construct: endogenous in cells; host or cells: AR42J cells
- Sequence (P30553 whole entry): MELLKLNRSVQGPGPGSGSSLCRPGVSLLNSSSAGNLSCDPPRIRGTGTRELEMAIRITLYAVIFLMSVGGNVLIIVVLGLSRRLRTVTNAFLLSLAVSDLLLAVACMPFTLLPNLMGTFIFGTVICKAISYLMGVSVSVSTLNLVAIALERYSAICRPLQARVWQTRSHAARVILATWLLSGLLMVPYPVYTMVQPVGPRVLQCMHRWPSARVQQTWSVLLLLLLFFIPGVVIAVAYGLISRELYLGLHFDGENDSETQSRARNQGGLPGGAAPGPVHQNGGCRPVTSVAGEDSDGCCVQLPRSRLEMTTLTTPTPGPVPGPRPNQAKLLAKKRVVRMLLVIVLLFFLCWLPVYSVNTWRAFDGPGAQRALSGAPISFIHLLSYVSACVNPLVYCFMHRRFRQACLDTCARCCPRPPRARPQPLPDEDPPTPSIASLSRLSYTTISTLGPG
- EXPERIMENTAL_DETAILS: Competitive binding (IC50) on AR42J cells against [177Lu]Lu-DOTA-PP-F11N
- TEST_CONDITIONS: AR42J cells, 2.0 x 10^5 cells/well/mL; [177Lu]Lu-DOTA-PP-F11N 0.3 pmol/well as reference; 3 h, 37°C; natLu-labeled DOTA peptides, tetrapeptides unlabeled; read-out: IC50
- Experimental: IC50 values of all compounds were determined according to a previously published procedure. […] CCK-2R affinity and lipophilicity data of the compounds evaluated. Affinity data were determined on AR42J cells (2.0 x 10^5 cells/well/mL) and [^177Lu]Lu-DOTA-PP-F11N (0.3 pmol/well) as radiolabeled reference (3 h, 37°C, RPMI 1640, 5 mM L-Gln, 5 mL non-essential amino acids (100x), 10% FCS + 5% BSA (v/v)).
Non-standard residues stand in square brackets, D forms with d. Residues, ends and D or L forms follow the SMILES beside them. *: point of attachment. DOTA = O=C(O)CN1CCN(CC(=O)O)CCN(CC(=O)*)CCN(CC(=O)O)CC1; 1Nal = N[C@@H](Cc1cccc2ccccc12)C(=O)O; NMeNle = CCCC[C@H](NC)C(=O)O; PEG4 = NCCOCCOCCOCCOCCC(=O)O; Nle = CCCC[C@H](N)C(=O)O
IC50 values by entry
READOUT_TYPE: IC50 (µM)

>>> meas_value("CCCC[C@@H](C(=O)N[C@@H](CC(=O)O)C(=O)N[C@@H](Cc1cccc2ccccc12)C(N)=O)N(C)C(=O)[C@H](Cc1c[nH]c2ccccc12)NC(=O)CNC(=O)CNC(=O)[C@H](C)NC(=O)CNC(=O)CN1CCN(CC(=O)O)CCN(CC(=O)O)CCN(CC(=O)O)CC1 [[^nat/177Lu]Lu-DOTA-CCK-57, metal not drawn] ({DOTA}-GAGGW[NMeNle]D[1Nal]-NH2)")
0.00967
>>> meas_value("CCCC[C@@H](C(=O)N[C@@H](CC(=O)O)C(=O)N[C@@H](Cc1cccc2ccccc12)C(N)=O)N(C)C(=O)[C@H](Cc1c[nH]c2ccccc12)NC(=O)CCOCCOCCOCCOCCNC(=O)CN1CCN(CC(=O)O)CCN(CC(=O)O)CCN(CC(=O)O)CC1 [[^nat/177Lu]Lu-DOTA-CCK-64, metal not drawn] ({DOTA-PEG4}-W[NMeNle]D[1Nal]-NH2)")
0.00764
>>> meas_value("CCCC[C@H](NC(=O)[C@@H](N)Cc1c[nH]c2ccccc12)C(=O)N[C@@H](CC(=O)O)C(=O)N[C@@H](Cc1cccc2ccccc12)C(N)=O [B1, H-Trp-Nle-Asp-1-Nal-NH2] (H-W[Nle]D[1Nal]-NH2)")
0.297
>>> meas_value("CCCC[C@H](NC(=O)[C@@H](N)Cc1c[nH]c2ccccc12)C(=O)N[C@@H](CC(=O)O)C(=O)N[C@@H](Cc1ccccc1)C(N)=O [B2, H-Trp-Nle-Asp-Phe-NH2] (H-W[Nle]DF-NH2)")
0.466

Every entry's value here was drawn from paper PMC10329608.
